All figures here come from paper PMC2756588.

tested system: T1, Myo5, Q04439
T1 sequence (Q04439 1072-1160, looked up): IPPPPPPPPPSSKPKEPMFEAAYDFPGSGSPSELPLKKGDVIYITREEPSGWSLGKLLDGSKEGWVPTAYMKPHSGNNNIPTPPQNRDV
test description: SPOT array
study conditions: median of control spots 471
reported metric: SPOT intensity

Completed entries (count: 3):
| binder | SPOT intensity |
| --- | --- |
| LLIRWLILMPLVGSR | 10 |
| YYNRQELALPKRMSS | 5 |
| AVPPPPPPPPLPESL | 132 |

[Q] SPOT intensity lookup needed for LKRITSPPLPPRADS , thanks.
[A] 4

[Q] Cool, now FHLNPKRSAVLYDRP
[A] 1

[Q] Cool, now NPNRRAPRRPLSTQH
[A] 0

[Q] Cool, now RRRDFGAPANKRPRR
[A] 2

[Q] Cool, now FFRRSELYLPNSSKA
[A] 0

[Q] Cool, now FLIKFTPKFPQSIDH
[A] 27

[Q] Cool, now LKHGWKPLRPIKLIS
[A] 0
